Biological target: T1, Mouse Id1: Histidine (mouse, UniProt P20067-2 1-148, limits assumed)
T1 construct: Fusion protein made in E. coli from vector pGW07; also called m-Id1-His; not shown: His tag
T1 sequence (looked up): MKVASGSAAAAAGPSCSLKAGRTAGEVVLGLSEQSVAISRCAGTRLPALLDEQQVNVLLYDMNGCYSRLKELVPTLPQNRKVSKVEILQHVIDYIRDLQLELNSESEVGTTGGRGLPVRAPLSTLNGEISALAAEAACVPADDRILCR
Assay: ELISA, Ab 0.500 µg/ml
measured-endpoint: A450

binder	result
rabbit monoclonal anti-human Id3, clone #BCH-4/#3-3 (antibody, V domains shown, Rabbit IgG from a rabbit hybridoma; also called h Id3 MoAb 3-3) VH: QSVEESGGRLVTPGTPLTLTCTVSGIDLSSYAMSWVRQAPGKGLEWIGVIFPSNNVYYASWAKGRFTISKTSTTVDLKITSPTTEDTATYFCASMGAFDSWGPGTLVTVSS VL: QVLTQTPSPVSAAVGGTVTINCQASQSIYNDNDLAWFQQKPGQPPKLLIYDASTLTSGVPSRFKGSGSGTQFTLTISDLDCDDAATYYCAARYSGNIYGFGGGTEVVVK	0.05 A450
rabbit monoclonal anti-mouse/human Id3, clone #BCH-4/#17-3 (antibody, V domains shown, Rabbit IgG from a rabbit hybridoma; also called m/h Id3 MoAb 17-3; BCH-3/#17-3) VH: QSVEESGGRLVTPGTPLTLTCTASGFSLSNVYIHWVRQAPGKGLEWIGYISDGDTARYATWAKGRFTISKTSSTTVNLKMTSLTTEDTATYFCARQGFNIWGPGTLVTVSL VL: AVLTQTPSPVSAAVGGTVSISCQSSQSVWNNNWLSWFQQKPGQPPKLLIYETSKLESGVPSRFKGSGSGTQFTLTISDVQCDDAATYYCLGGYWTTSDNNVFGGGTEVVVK	0.06 A450
rabbit monoclonal anti-mouse/human Id3, clone #BCH-4/#16-1 (antibody, V domains shown, Rabbit IgG from a rabbit hybridoma; also called m/h Id3 MoAb 16-1) VH: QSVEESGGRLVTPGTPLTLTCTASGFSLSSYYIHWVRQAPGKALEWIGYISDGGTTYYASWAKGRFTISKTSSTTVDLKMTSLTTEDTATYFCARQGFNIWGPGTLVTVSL VL: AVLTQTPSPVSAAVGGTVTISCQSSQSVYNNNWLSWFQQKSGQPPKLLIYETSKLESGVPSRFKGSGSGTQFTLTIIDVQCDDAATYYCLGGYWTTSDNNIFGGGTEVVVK	0.047 A450

Attribution: patent US20070178531A1
